Experiment: viability gain of MRP-1-high H69AR cells under doxorubicin, pilot screen, MRP-1 activator project, CellTiter-Glo, duplicate (AID 807);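 note: compound pretreatment 18-22 h then 72 h combined with doxorubicin; 0% = doxorubicin alone and 100% = vehicle without doxorubicin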
Conditions: H69AR viability with doxorubicin, CellTiter-Glo luminescence; at 10 µM; active compounds read high
MEASURED QUANTITY: viability increase (%)
Numbers only; they are read as %.

COMPOUND	viability increase [%]
O=C(Cn1cnc2c(cnn2-c2ccc(F)cc2)c1=O)NCCc1ccccc1	1.69
CCOc1ccc(N(CC(=O)Nc2ccccc2C)S(=O)(=O)c2c(C)noc2C)cc1	-5.61
O=C(NC1CCCCCCC1)c1c(O)c2ccccc2[nH]c1=O	-4.23
O=C(O)C1(P(=O)(c2ccccc2)c2ccccc2)CCC1	-0.11
COC(=O)c1c(N)sc(C(C)=O)c1C	-2.35
COc1cccc(-n2c(=O)[nH]cc(C(=O)Nc3ccc(NC(C)=O)cc3)c2=O)c1	0.63

--- query ---
Item COc1cccc(-n2c(Cc3cc(=O)[nH]c(=O)[nH]3)nnc2SCC(=O)N2CCCCC2)c1 has what recorded viability increase? -1.49

====

Below, each of the compounds is paired with its reported growth inhibition value.
Assay: Restrictive medium S. cerevisiae growth inhibition, OD615, pilot screen of yeast lifespan reduction project, restrictive growth control (AID 706);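 note: modified DeaD lifespan yeast strain shifted to restrictive glucose medium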
Conditions: OD615, 48 h, at 10 µM, active compounds read high
Report as a plain number; the unit % is understood.

Guide cases for growth inhibition, answers given:
COMPOUND	NUMERIC VALUE
CCOCCOCN(C#N)c1nc(OC)nc(N(C)C)n1	0.69
COC(=O)c1ccc(C2c3c(n[nH]c3C)C(=O)N2c2ccc(C)cc2)cc1 (stereo unspecified)	-0.115

Using the record for CCOC(=O)N1CCC(NC(=O)C2CCCCN2S(=O)(=O)c2ccc(F)cc2)CC1 (stereo unspecified) , report its growth inhibition. -1.21

What does the data say about its growth inhibition? Entry: COC(=O)c1c(C)nc(C)c2c(=O)oc3ccccc3c12 15.3

Would you kindly share the measured growth inhibition for CCCCCCc1c(O)nc(SCC(=O)O)[nH]c1=O ? 13.4

Looking for the measured growth inhibition of c1ccc(Cn2ncc3ccccc32)cc1 , can you help? 4.4

====

Measured viability, listed per entry for reference.
Test: growth suppression of PTEN-deleted HCT116, pilot screen, cell-based, HCT116 clonal line, CellTiter-Glo (AID 824);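 note: 0% = 20 µM Hyamine control and 100% = vehicle cell control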
Conditions: 60 h, at 10 µM, active compounds read low
Records with an inconclusive call do not appear.
Write the value in % as a bare number.

Consider the reported viability for these molecules:
MOLECULE	viability / %
COc1ccc(-c2nc(CS(=O)CC(=O)NCc3cccnc3)c(C)o2)cc1OC (stereo unspecified)	94.8
C=CCc1cccc2cc(C(=O)N(C)C)c(=O)oc12	93.8
CC(N=C1NS(=O)(=O)c2ccccc21)c1ccccc1 (stereo unspecified)	96.2
CCOc1ccc(N(CC(=O)NCc2ccccc2)S(=O)(=O)c2c(C)noc2C)cc1	95.1
CCOC(=O)C(C)Sc1ncnc2nc[nH]c12 (stereo unspecified)	99.2

Requested field: viability. Item: COc1cccc(-c2nc(CS(=O)CC(=O)NCc3ccccc3Cl)c(C)o2)c1 (stereo unspecified) 91.9

====

Assay: growth suppression of PTEN-deleted HCT116, pilot screen, cell-based, HCT116 clonal line, CellTiter-Glo (AID 824);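 note: 0% = 20 µM Hyamine control and 100% = vehicle cell control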
Conditions: 60 h, at 10 µM, active compounds read low
Records with an inconclusive call do not appear.
Threshold 90%. viability below it: YES. viability at it or above: NO.

Worked set:
COMPOUND	QUALITATIVE LABEL
COc1ccc2nc(SCc3nc(N)nc(Nc4ccccc4)n3)[nH]c2c1	YES
CC1(C)C(c2ccc(Cl)cc2)=[N+]([O-])C2(CCCC/C2=N\O)N1O (configuration not stated)	NO
Cc1cc(C)c(C#N)c(SCC(=O)c2cccs2)n1	YES
CCCN(CCC)C(=O)c1ccc2c(c1)N(Cc1ccccc1)C(=O)CS2=O (configuration not stated)	YES
O=C(CCSc1ccccc1)Nc1nnc(-c2ccccc2)o1	NO

Lab note: viability threshold 90%. Does this compound come in strictly under it? CCCCCCc1c(O)nc(SCC(=O)O)[nH]c1=O NO

Lab note: viability threshold 90%. Does this compound come in strictly under it? CC1Cc2ccccc2N1C(=O)C1CCCN(S(=O)(=O)c2cccc3cccnc23)C1 (configuration not stated) YES

Is viability strictly under 90% for the entry CCC(C)NC(=O)CCCCCn1c(=O)[nH]c2cc(OC)c(OC)cc2c1=O (configuration not stated) ? NO

Lab note: confirm whether the reported viability for this compound is below 90%, equality not counting. compound: CCN(CC)C(=O)c1cc2sc3ccccc3c2s1 NO

Given the entry CCCc1cc(C(=O)NCc2cccs2)no1 , would its reported viability be below 90%? NO

Does the reported viability of CCCc1ccc2c(N)c(C#N)sc2n1 stay below 90%? NO

Is it true that viability reported for O=C(NCCOC(=O)c1ccc(C(=O)OCCNC(=O)c2ccccc2)o1)c1ccccc1 is less than 90%? NO

Is it true that viability reported for CCOC(=O)Cn1c(=O)oc2cc(S(=O)(=O)N3CCC(N4CCCCC4)CC3)ccc21 is less than 90%? NO

Does CCc1c(C)nc2[nH]nc(-c3ccccc3)n2c1=O have viability strictly under 90%? NO

Check if viability falls below 90% for O=C1CCC(=O)N1c1cccc(-c2nc3ccccc3o2)c1 . NO

# strict comparison: is reported viability < 90%? input = COc1cccc(NC=C2C(=O)OC3(CCCCC3)OC2=O)c1 NO

====

Experiment: OD615 S. cerevisiae growth inhibition, permissive medium, pilot counter-assay, permissive growth control for S. cerevisiae lifespan shortening project (AID 705)
Settings: OD615, 24 h, at 10 µM, active compounds read high
MEASURED QUANTITY: growth inhibition (%)
Report the figure in % without appending any unit label.

COMPOUND	NUMERIC VALUE
COc1ccc(OC)c(S(=O)(=O)n2nc(-c3ccccc3)cc2N)c1	-6.75
CC1CCc2c(sc3nc(SCc4nc(-c5ccccc5)no4)n(C)c(=O)c23)C1 (stereo not drawn)	-3.38
Cc1nc(SCC(=O)NCc2ccco2)c2oc3ccccc3c2n1	-0.535
CCCc1[nH]nc2c1C(C1CCCCC1)C(C#N)=C(N)O2 (stereo not drawn)	-4.03
CCc1ccc(S(=O)(=O)NCc2cn3c(C)csc3n2)s1	0.075

Which value of growth inhibition has been reported for CCC(CC)C(=O)NCCc1cc2ccc(C)c(C)c2[nH]c1=O in the records? -14.2

What growth inhibition value was documented for this compound, CCN1CCN(CCNC(=O)CS(=O)(=O)Cc2nc(-c3ccc(C)cc3)oc2C)CC1 ? -13.7

Reported growth inhibition for CCN1CCN(Cc2nc3c(c(=O)n(C)c(=O)n3C)n2Cc2ccccc2Cl)CC1 : what is it? -8.38

====

Assay: RAM signaling pathway blockade in yeast – S. cerevisiae, Pdr1DBD-CYC8 efflux-inhibited sensitized strain, primary screen (AID 1298);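 note: 0% = DMSO untreated cells without growth and 100% = 10 µM 1-NA-PP1 full growth; higher means more yeast growth rescued from 5-FOA killing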
Details: S. cerevisiae cbk1-as DSE1-URA3 strain, 5-FOA growth OD615, 2 d; at 50 µM; active compounds read high
Binary classification by RAM network inhibition, with 4% as an inclusive lower bound for y; all other cases are n.

Quick check: does O=C(Nc1nc2ccccc2n1CCOc1ccc(Cl)cc1)c1ccco1 have RAM network inhibition greater than or equal to 4%? y

Quick check, RAM network inhibition >= 4%? COc1ccc(Cc2nnc(-c3cccc(C)c3)o2)cc1OC y

Reported RAM network inhibition reaches at least 4% for O=C(c1cccc(F)c1)N1CCN=C1SCc1cccnc1 ? n

====

Test: inhibitors of the yeast RAM network, pilot screen, dse1pr::URA3 reporter, 5-FOA selection (AID 869);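 note: 0% = DMSO wells with no growth and 100% = 10 µM 1-NA-PP1 with full growth; RAM network block rescues cells from 5-FOA so hits raise OD615 growth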
Details: S. cerevisiae dse1pr::URA3 5-FOA growth, OD615, 2 d; at 10 µM; active compounds read high; strain carries analog-sensitive mutant Cbk1 kinase
# inhibition >= 1% gives MET, anything below gives NOT MET

Solved cases below.
MOLECULE	QUALITATIVE LABEL
COc1ccc(-n2c(Cc3cccn3C)nnc2SCC(=O)Nc2ccc(C(C)=O)cc2)cc1	MET
C=CCOC(=O)COc1ccc2c(C)c(C)c(=O)oc2c1	NOT MET
CCOc1ccccc1N1C(=O)CC(Nc2ccc(N3CCOCC3)cc2)C1=O (stereo unspecified)	MET
COc1ccccc1N1CCN(CC(=O)c2ccc3ccn(C(C)=O)c3c2)CC1	MET
COc1ccc(-c2nc(CS(=O)CC(=O)N3CCc4ccccc4C3)c(C)o2)cc1 (stereo unspecified)	MET
c1ccc(Sc2nc(N3CCCCC3)nc(N3CCCCC3)n2)nc1	NOT MET

Determine whether measured inhibition meets or exceeds 1% for Cc1ccc(CNC(=O)c2ccc(Br)o2)cc1 NOT MET

Is reported inhibition greater than or equal to 1% here: O=C(NCCCN1CCCCC1)c1ccc2c(=O)n(CCc3ccccc3)c(=O)[nH]c2c1 NOT MET

Exam item: decide whether the reported inhibition for CCCCC(CC)CNC(=O)c1[nH]c(C)c(C(C)=O)c1C (stereo unspecified) is at least 1%. MET

Check if inhibition >= 1% (inclusive). Item: CCN1CCN(c2cc(C)c3cc(NC(=O)c4ccncc4)ccc3n2)CC1 MET
